# measurement_target: human LXR alpha (GST-LXRα-LBD) (Homo sapiens, UniProt Q13133)
# Sequence (Q13133 164-447): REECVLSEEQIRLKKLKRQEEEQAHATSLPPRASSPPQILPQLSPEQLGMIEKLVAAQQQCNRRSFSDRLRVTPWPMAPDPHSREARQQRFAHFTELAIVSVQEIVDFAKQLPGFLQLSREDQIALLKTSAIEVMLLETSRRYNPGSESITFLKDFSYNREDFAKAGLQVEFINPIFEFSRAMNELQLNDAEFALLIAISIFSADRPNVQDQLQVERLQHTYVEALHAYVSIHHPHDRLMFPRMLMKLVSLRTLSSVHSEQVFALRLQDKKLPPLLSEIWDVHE
property_measured: IC50
Just so you know, I need the unit written after the number.

Value lookup for IC50; key = CCN(Cc1ccccc1)c1ccc(C(O)(C(F)(F)F)C(F)(F)F)cc1
46 nM
